src = PubChem BioAssay

Attribute: rescue above control
# Protocol summary: rescue of polyQ-huntingtin neuronal dysfunction in worms, whole organism, C. elegans mechanosensory neurons, N-terminal huntingtin (AID 1599)
# Condition: touch response, stronger effect = higher value
Measured potencies and affinities stand elsewhere.
Please give the numeric answer without any surrounding text.

{"Compound": "CN1C2CCC1CC(OC(=O)C(CO)c1ccccc1)C2 (configuration not stated)", "Endpoint": "rescue above control", "Measured result": -4.85}
{"Compound": "c1coc(CNc2ncnc3nc[nH]c23)c1", "Endpoint": "rescue above control", "Measured result": 19.9}

## Input Any idea what rescue above control was measured for `O=C(O)c1cc(=O)c2ccccc2[nH]1` ?
## Output 12.3

## Input Okay, and C[N+]1(C)CCCC(OC(=O)C(O)(c2ccccc2)c2ccccc2)C1 (configuration not stated) ?
## Output -3.59

## Input Okay, and CCC(c1ccc(O)cc1)C(CC)c1ccc(O)cc1 (configuration not stated) ?
## Output 0

## Input Okay, and CN1CCc2cccc3c2C1Cc1ccc(O)c(O)c1-3 (configuration not stated) ?
## Output 3.21

## Input Okay, and `O=C(O)c1cc2cc(Cc3cccnc3)ccc2o1` ?
## Output -5.98

----------
# Protocol summary: stimulators of nuclear beta-catenin in C2C12, primary screen, imaging, WNT3A-conditioned medium, mouse C2C12, NPC library (AID 1117326)
# Condition: stimulation, at 2 µM, stronger effect = higher value
Endpoint: nuclear beta-catenin stimulation (%)
Please give a number only; it is taken to be in %.

The cases that follow already have their nuclear beta-catenin stimulation on record.
{"Compound": "CC[C@H](c1ccc(O)cc1)[C@@H](CC)c1ccc(O)cc1", "nuclear beta-catenin stimulation / %": 2.5}
{"Compound": "Cc1[nH]c(=O)c(C#N)cc1-c1ccc2nccn2c1", "nuclear beta-catenin stimulation / %": -0.5}
{"Compound": "CCn1ccnc1CC1COc2ccccc2O1 (stereo unspecified)", "nuclear beta-catenin stimulation / %": 0.3}
{"Compound": "O=C(N/N=C/c1ccc([N+](=O)[O-])o1)c1ccc(O)cc1", "nuclear beta-catenin stimulation / %": 2}
{"Compound": "Cc1cc2c(cc1S(N)(=O)=O)S(=O)(=O)CCC2", "nuclear beta-catenin stimulation / %": 1}

## Input Any idea what nuclear beta-catenin stimulation was measured for `C/C(=C(\CCOP(=O)(O)O)SC(=O)c1ccccc1)N(C=O)Cc1cnc(C)nc1N` ?
## Output -0.9

## Input Okay, and `CCOc1ccc2nc(S(N)(=O)=O)sc2c1` ?
## Output 0.1

## Input Okay, and `O=C(O)C1(C(=O)O)CCC1.[NH2-].[NH2-].[Pt+2]` ?
## Output -2.2

## Input Okay, and `N=C(N)N1CCc2ccccc2C1` ?
## Output 0.9

## Input Okay, and CC1(COc2ccc(CC3SC(=O)NC3=O)cc2)CCCCC1 (stereo unspecified) ?
## Output 1.5

## Input Okay, and `CO[C@H]1O[C@@H]2O[C@@]3(C)CC[C@H]4[C@H](C)CC[C@@H]([C@@H]1C)[C@@]24OO3` ?
## Output 11.7

----------
Attribute: insulin secretion stimulation
# Protocol summary: stimulators of insulin release from INS-1E, primary screen, cell-based, 5 mM glucose, NPC library (AID 1117329)
# Condition: rat INS-1E insulin secretion, at 10 µM, stronger effect = higher value
Please give a number only; it is taken to be in %.

## Input Any idea what insulin secretion stimulation was measured for CN1C(=O)CC(C)(c2ccccc2)C1=O (stereo unspecified) ?
## Output -0.7

## Input Okay, and `O=C1NCN(c2ccccc2)C12CCN(CCCC(c1ccc(F)cc1)c1ccc(F)cc1)CC2` ?
## Output 2.5

## Input Okay, and `COC(=O)[C@@H](N)Cc1ccc(O)c(O)c1` ?
## Output -2.6

## Input Okay, and `Cc1c(C(=O)NN2CCCCC2)nn(-c2ccc(Cl)cc2Cl)c1-c1ccc(Cl)cc1` ?
## Output 3

## Input Okay, and `CC(C)(C)c1ccc(C(=O)CCCN2CCC(OC(c3ccccc3)c3ccccc3)CC2)cc1` ?
## Output 1

## Input Okay, and CC(=O)NC(Cc1ccccc1)C(=O)O (stereo unspecified) ?
## Output -2.3

## Input Okay, and CC(C)CCCC(C)N (stereo unspecified) ?
## Output 4.9

## Input Okay, and `CC(C=CC=C(C)C=CC1=C(C)CCCC1(C)C)=CC=CC=C(C)C=CC=C(C)C=CC1=C(C)CCCC1(C)C` ?
## Output 3.2
